// provenance: PubChem BioAssay

test_name: RAM signaling pathway blockade in yeast – S. cerevisiae, Pdr1DBD-CYC8 efflux-inhibited sensitized strain, primary screen (AID 1298);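 also: 0% = DMSO untreated cells without growth and 100% = 10 µM 1-NA-PP1 full growth; higher means more yeast growth rescued from 5-FOA killing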
condition_info: S. cerevisiae cbk1-as DSE1-URA3 strain, 5-FOA growth OD615, 2 d; at 50 µM; active compounds read high
recorded_metric: RAM network inhibition (%)

- O=C(NCCN1C(=O)C2C3C=CC(C3)C2C1=O)Nc1cccnc1 (centres undefined): 1.17
- O=C(NCCCc1ccccc1)c1ccncc1: 6.46
- CCN(Cc1ccccc1)S(=O)(=O)c1ccc(C(=O)Nc2nnc(C3CC3)o2)cc1: 5.05
- CCN(CCNC(=O)C1CCN(c2nnc(-n3cccc3)s2)CC1)c1ccccc1: 8.71
- Cc1ccc2c(c1)NC(=O)C(CC(=O)O)O2 (centres undefined): 4.69
- CCC(C)[C@@H](C(=O)Nc1ccc2c(c1)OCO2)N1Cc2ccccc2C1=O (some centres undefined): 4.42
- O=C(C1CC1)N1CCc2cc(Br)cc(S(=O)(=O)NCCN3CCOCC3)c21: 2.57
- NC(=O)C1CCN(c2nc(C3CC3)nc3c2nnn3Cc2ccccc2Cl)CC1: 0.99
- CC(C)N(C(=O)C1CC(=O)OC12CCCCC2)C(C)C (centres undefined): 0.1
- c1ccc(-c2ccccc2-n2cnnn2)cc1: 0.51
- COc1ccc(-c2nnc(NC(=O)c3ccccc3C)o2)cc1: 0.11
- O=C(CNC(=O)c1ccco1)OCC(=O)c1ccccc1: 0.92
- Cc1cc(C)nc(SCSc2nc(C)cc(C)n2)n1: 5.29
- O=C(NCCCN1CCCC1=O)c1ccc2c(c1)ncn2C1CCCCC1: 10.9
- Cc1cc(S(=O)(=O)N2CCN(Cc3ccccc3)CC2)c(C)s1: 4.48
- CN(C)c1oc(-c2ccccc2Cl)nc1S(=O)(=O)c1ccccc1: 17
- CCn1c(=O)c2c3c(sc2n2c(SCc4ccc(F)cc4)nnc12)CCCC3: 3.4
- COCCN(CCOC)Cc1c(O)ccc2c3c(c(=O)oc12)CCC3: -0.97
- CCCCN1C(=O)C(O)(CC(=O)c2ccccc2OC)c2ccccc21 (centres undefined): 2.02

====

test_name: growth suppression of PTEN-deleted HCT116, pilot screen, cell-based, HCT116 clonal line, CellTiter-Glo (AID 824);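 also: 0% = 20 µM Hyamine control and 100% = vehicle cell control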
condition_info: 60 h, at 10 µM, active compounds read low
Results filed as inconclusive are left out. Activity calls are given as the source filed them.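 Rule for the calls: active = viability at or below 27.92% in each of two runs, the all-compound median minus 4 SD; inconclusive = no clear call, values can overlap the other calls; inactive = the rest.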
Reported values of viability for individual entries
recorded_metric: viability

• CCOC(=O)CNS(=O)(=O)CCN1C(=O)c2ccccc2C1=O = 94.3% (inactive)
• COC(=O)C1=C(C)Nc2ccc(C)cc2S1 = 100% (inactive)
• O=C1c2ccccc2C(=O)N1CCCc1nc2ccccc2c(=O)n1-c1cccnc1 = 90.8% (inactive)
• Cc1csc(NC(=O)NC2(C(F)(F)F)Oc3ccccc3O2)n1 = 84.3% (inactive)
• CCN(CCNC(=O)Cn1cc2c(n1)CCCC2)c1ccccc1 = 93.5% (inactive)
• COc1ccc(N2C(=O)CCC(C(=O)N3CCCCCC3)C2c2ccc(OC)c(OC)c2)cc1 (centres undefined) = 99% (inactive)
• Cn1c(=O)c(C(=O)Nc2ncccn2)c(O)c2ccccc21 = 89.5% (inactive)
• Cc1ccc(N(C(=O)CC2NC(=O)NC2=O)C2(C(=O)NC3CCCC3)CCCCC2)cc1 (centres undefined) = 93.7% (inactive)
• COC(=O)c1ccc(CSc2nc3c(c(=O)n2-c2ccc(Br)cc2)SCC3)o1 = 76% (inactive)

====

test_name: inhibitors of the yeast RAM network, pilot screen, dse1pr::URA3 reporter, 5-FOA selection (AID 869);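 also: 0% = DMSO wells with no growth and 100% = 10 µM 1-NA-PP1 with full growth; RAM network block rescues cells from 5-FOA so hits raise OD615 growth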
condition_info: S. cerevisiae dse1pr::URA3 5-FOA growth, OD615, 2 d; at 10 µM; active compounds read high; strain carries analog-sensitive mutant Cbk1 kinase
Reported values of inhibition for individual entries
recorded_metric: inhibition (%)

- O=C(Nc1nnc(C2CC2)o1)c1ccc(S(=O)(=O)N2CCCc3ccccc32)cc1: 0.79
- CC(=O)N1CCc2cc(C(=O)CN3CCN(c4cccc(Cl)c4)CC3)ccc21: 1.65
- Brc1[nH]nc2ccccc12: 0.28
- CC(=O)N1CCc2c(sc(NC(=O)C3CC3)c2-c2nc3ccccc3s2)C1: 1.99
- CCc1ccc(NC(=O)CSc2nc3c(c(=O)n(C)c(=O)n3C)n2C)cc1: 1.03
- O=C(CSc1oc(-c2ccco2)nc1S(=O)(=O)c1ccc(Cl)cc1)NCC1CCCO1 (stereo unspecified): -0.09
- CCOc1ccc(NC(=O)C2CC(C)=C(C)CC2C(=O)O)cc1 (stereo unspecified): 1.79
- COc1ccc(-n2nnnc2S(=O)(=O)CC(=O)N2CCCCC2)cc1: 0.75
- COc1ccc(N(CC(=O)NCc2ccc3c(c2)OCO3)S(=O)(=O)c2c(C)nn(C)c2C)cc1: 0.12
- Cc1ccc(S(=O)(=O)NCC(=O)N2CCOCC2)cc1: -0.085
- COc1ccc(N(CC(=O)NCc2ccco2)S(C)(=O)=O)cc1Cl: 2.38
- COc1ccc(NC(=O)C2CCN(S(=O)(=O)c3cccc4cccnc34)CC2)cc1OC: 1.41
- Cc1c(C(=O)NCc2ccc3c(c2)OCO3)oc2ccc(S(=O)(=O)N3CCCC3)cc12: 1.78
- COCCSc1nc2c(c(=O)[nH]c(=O)n2C)n1Cc1cccc(C)c1: 1.57
- COc1ccc(S(=O)(=O)N(CCc2ccccc2)CC(=O)N2CCOCC2)cc1: 0.965
- OCCN1CCN(c2ncnc3c2sc2nc(N4CCOCC4)c4c(c23)CCC4)CC1: 1.13
- O=C(NCCCN1CCCC1=O)c1ccc2c(c1)ncn2C1CCCCC1: 0.03
- COc1ccc(-c2nc(CS(=O)(=O)CC(=O)Nc3ccc(Cl)cc3)c(C)o2)cc1: 2.77
- CCN(CC)c1cc(C)c2cc(NC(=O)CNC(C)=O)ccc2n1: 1.11
- COc1cccc(-c2cc(C(F)(F)F)nc(N3CCOCC3)n2)c1: 1.38
- c1ccc(-c2noc(-c3cccnc3)n2)cc1: -0.04
- O=C(N1CCOCC1)N1CCN(c2ccccc2F)CC1: 0.325
- O=C(C1CC1)N1CCc2cc(Br)cc(S(=O)(=O)N3CCCCCC3)c21: 1.66
- Cc1cc(OCC(=O)Nc2cc(-c3nn4c(C)nnc4s3)ccc2C)ccc1Cl: 2.49
- O=C1C(C=NCc2ccco2)=C(O)c2ccccc21: 0.74
- COc1ccc(OC)c2[nH]c(=O)c(CCNC(=O)c3cc4ccccc4o3)cc12: 0.6
- CCCCC(=O)OCCNC(=O)c1cc2ccccc2oc1=O: 2.96
- CC1(C)OC(=O)C(=C2CCCN2)C(=O)O1: 0.815
- Cc1nc(SCC(=O)Nc2cccc(Cl)c2)n[nH]1: 0.56
- COCCN(C(=O)Nc1ccccc1)C(C)c1cccnc1 (stereo unspecified): 1.54
- Cc1cnc(N)c2c(=O)oc3ccccc3c12: 1.61

====

test_name: reversal of MRP1-mediated doxorubicin resistance, pilot screen, H69AR cells, doxorubicin co-treatment (AID 601)
condition_info: H69AR cells + 2 uM doxorubicin, CellTiter-Glo, 72 h; at 10 µM; active compounds read high
Reported values of differential viability (reversal) for individual entries
recorded_metric: differential viability (reversal) (%)

* CC(C)COC(=O)N(C)c1ccc(C(O)(C(F)(F)F)C(F)(F)F)cc1 | 3.42
* COc1ccc(-n2c(SCc3ccc(C#N)cc3)nnc2-c2ccccn2)cc1 | 11.2
* NC(=O)c1ccccc1NC(=O)CCCN1C(=O)CCC1=O | 10.6
* CC(=O)C1=C(O)C(=O)N(c2ccc(C(=O)O)cc2)C1c1ccccc1 (stereo not given) | 5.88
* CN(C)S(=O)(=O)Nc1ccc(Br)cc1F | 13.6
* O=C(COC(=O)c1cc(-c2ccco2)nc2ccccc12)NCc1ccc2c(c1)OCO2 | 11.3
* CN(C=O)CP(=O)(O)CCN1CCCC1=O | 7.19
* Cc1ccc(S(=O)(=O)N(CC(=O)N2CCOCC2)CC(=O)N2CCOCC2)cc1 | 5.66
* CC(C)Cn1c(N)c(C(=O)COC(=O)c2ccc3c(c2)OCCO3)c(=O)n(C)c1=O | -6.76
* CC1CCCCC1NC(=O)CN1CCN(Cc2ccccc2Cl)C1=O (stereo not given) | 11.9
* COc1ccc(CC(=O)Nc2c3c(nn2-c2cccc(Cl)c2)CS(=O)(=O)C3)cc1 | 1.1
* Cc1csc2nc(CNC(=O)c3ccco3)cn12 | 13.9
* Nc1nc2ccccc2n1C(=O)CCc1ccccc1 | -27.6
* Cc1nnc(NS(=O)(=O)c2ccc(N)cc2)s1 | -10.4
* COc1cc(OC)c(NC(=O)c2ccco2)cc1Cl | -12.1
* C/C(N)=C(/C#N)C(=O)COC(=O)COc1ccc(Cl)cc1 | -5.87
* NS(=O)(=O)c1cc2c(cc1C(F)(F)F)NC(Cc1ccccc1)NS2(=O)=O (stereo not given) | -5.48
* Cc1cccc(-n2c(Cc3cc(=O)[nH]c(=O)[nH]3)nnc2SCC(=O)NCc2ccco2)c1 | 13.9
* COc1ccc2c(c1)C1(C)CC(C)(C)N2C(=O)N1c1ccccc1 (stereo not given) | -16.7
* COc1ccc2cc(C#N)c(SCC(=O)N3CCCC3)nc2c1 | -5.28
